The values you see were collected from patent US20250171438A1.

Assignment: determine reported AC50 for the given compounds.
- system_name: human PAH with the R408W mutation (Homo sapiens, UniProt P00439, R408W)
- Construct: expressed in transfected cells
- Sequence (P00439 whole entry R408W): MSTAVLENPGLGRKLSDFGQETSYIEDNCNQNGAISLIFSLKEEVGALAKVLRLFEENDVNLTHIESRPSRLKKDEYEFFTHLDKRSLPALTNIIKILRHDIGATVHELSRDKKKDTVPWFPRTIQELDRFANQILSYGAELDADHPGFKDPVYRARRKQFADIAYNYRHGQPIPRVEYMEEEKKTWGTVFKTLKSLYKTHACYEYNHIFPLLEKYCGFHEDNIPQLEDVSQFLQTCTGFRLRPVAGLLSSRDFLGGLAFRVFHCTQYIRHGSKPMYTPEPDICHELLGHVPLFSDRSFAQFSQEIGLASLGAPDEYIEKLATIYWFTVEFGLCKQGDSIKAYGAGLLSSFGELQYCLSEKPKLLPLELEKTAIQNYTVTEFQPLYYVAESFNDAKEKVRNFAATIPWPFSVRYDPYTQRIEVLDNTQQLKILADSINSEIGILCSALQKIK
- protocol_notes: Cell Based Phenylalanine Flux Assay
- test_context: A375 cells expressing human R408W PAH; 24 hrs compound incubation; 13C-Tyrosine by LC-MS; average where tested multiple times; read-out: AC50

Known AC50 results, listed for orientation:
| smiles_code | AC50 |
| --- | --- |
| Cc1csc(C(=O)N2CCc3[nH]cnc3[C@@H]2c2nc3ccccc3s2)n1 | > 5000 nM |
| Cc1ncoc1C(=O)N1C[C@@H](C)c2[nH]cnc2[C@@H]1c1nc2ccccc2s1 | > 5000 nM |
| Cn1cc(-c2ncc(C(=O)N3CCc4[nH]cnc4[C@H]3c3nc4ccccc4s3)o2)cn1 | 500 to 1000 nM |
| O=C(c1cnn2ccc(Cl)cc12)N1CCc2[nH]cnc2[C@@H]1c1nc2cccc(F)c2s1 | < 500 nM |
| O=C(c1cnc(-c2cnn(CC(F)(F)F)c2)s1)N1CCc2[nH]cnc2[C@@H]1c1nc2ccccc2s1 | 1000 to 5000 nM |

Give AC50 for each listed item.
1. O=C(c1sc(C2CC2)nc1Cl)N1CCc2[nH]cnc2[C@@H]1c1nc2c(F)cccc2s1
2. C[C@@H](O)c1nc(C(F)F)c(C(=O)N2CCc3[nH]cnc3[C@H]2c2nc3c(C(F)(F)F)cccc3s2)o1
3. O=C(c1nnc(-c2ccc(F)c(F)c2)o1)N1CCc2[nH]cnc2[C@H]1c1nc2c(F)cccc2s1
4. Cn1nccc1C(=O)N1CCc2[nH]cnc2[C@@H]1c1nc2c(C(F)(F)F)cccc2s1
5. O=C(c1scnc1C(F)(F)F)N1CCc2[nH]cnc2[C@H]1c1nc2ccccc2s1
6. O=C(c1ccnn1-c1ccccn1)N1CCc2[nH]cnc2[C@H]1c1nc2ccccc2s1

1000 to 5000 nM
< 500 nM
< 500 nM
1000 to 5000 nM
< 500 nM
< 500 nM

* * *

- system_name: human PAH with the R408W mutation (Homo sapiens, UniProt P00439, R408W)
- Construct: expressed in transfected cells
- protocol_notes: Cell Based Phenylalanine Flux Assay
- test_context: A375 cells expressing human R408W PAH; 24 hrs with compound; 13C-Tyrosine by LC-MS; average where tested multiple times; read-out: AC50
measured_parameter: AC50

| compound | AC50 |
| --- | --- |
| CNCc1ccc2c(C(=O)N3CCc4[nH]cnc4C3c3nc4ccccc4s3)cnn2c1 (stereo not shown) | 1 to 5 µM |
| CN(C)CCCc1nnc(C(=O)N2CCc3[nH]cnc3[C@H]2c2nc3ccccc3s2)o1 (single isomer, unassigned) | 1 to 5 µM |
| Cc1nnc(CCC(=O)N2CCc3[nH]cnc3C2c2nc3cccc(F)c3s2)s1 (stereo not shown) | 1 to 5 µM |
| Cc1nc(-c2ccccn2)oc1C(=O)N1CC(C)c2[nH]cnc2C1c1nc2ccccc2s1 (stereo not shown) | 1 to 5 µM |
| Cc1ncc(C(=O)N2CCc3[nH]cnc3C2c2nc3ccccc3s2)s1 (stereo not shown) | > 5 µM |

Parameters: items (list). Returns: AC50 for each item.
1. Nc1cnc(N2CCc3[nH]cnc3C2c2nc3ccccc3s2)nc1 (stereo not shown)
2. Cn1nc(C(C)(C)O)nc1C(=O)N1CCc2[nH]cnc2C1c1nc2c(F)cccc2s1 (stereo not shown)
3. CN(C)CCn1cc(C(=O)N2CCc3[nH]cnc3C2c2nc3ccccc3s2)c(C#N)n1 (stereo not shown)
4. O=C(c1ncco1)N1CCc2[nH]cnc2C1c1nc2ccc(F)cc2s1 (stereo not shown)
5. O=C(CCc1cccs1)N1CCc2[nH]cnc2C1c1nc2ccccc2[nH]1 (stereo not shown)
6. O=C(c1ccsn1)N1CCc2[nH]cnc2C1c1nc2ccccc2s1 (stereo not shown)

1 to 5 µM
> 5 µM
1 to 5 µM
> 5 µM
1 to 5 µM
1 to 5 µM

Give me AC50 for each of these compounds, listed below.
1. O=C(c1cnn(CCO)c1Cl)N1CCc2[nH]cnc2C1c1nc2c(F)cccc2s1 (stereo not shown)
2. O=C(c1cnn2cccc(F)c12)N1CCc2[nH]cnc2[C@H]1c1nc2cc(F)ccc2s1 (single isomer, unassigned)
3. Cc1nc(-c2ccccn2)c(C(=O)N2CCc3[nH]cnc3C2c2nc3ccccc3s2)o1 (stereo not shown)
4. O=C(N1CCC(O)C1)N1CCc2[nH]cnc2C1c1nc2ccccc2s1 [4S enantiomer of (3R)-1-[4-(1,3-benzothiazol-2-yl)-1H,4H,5H,]

1 to 5 µM
1 to 5 µM
1 to 5 µM
1 to 5 µM

Take each entry in turn and give its AC50.
1. O=C(c1cn[nH]c1)N1CCc2nc[nH]c2C1c1nc2c(F)cccc2s1 (stereo not shown)
2. NC(=O)c1ncoc1C(=O)N1CCc2[nH]cnc2C1c1nc2ccccc2s1 (stereo not shown)
3. COCc1cc(C(=O)N2CCc3[nH]cnc3C2c2nc3c(F)cccc3s2)[nH]n1 (stereo not shown)
4. Cc1c(C(=O)N2CCc3[nH]cnc3[C@H]2c2nc3c(F)cccc3s2)cnn1C (single isomer, unassigned)

["1 to 5 µM", "1 to 5 µM", "> 5 µM", "1 to 5 µM"]
